# assay.overview: chemical genetic growth profiling, strain panel (AID 1159580);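 note: tested at 20 µM; growth read once vehicle control cultures reached saturation at 30 °C; 1 = growth at the plate median or of vehicle wells; lower values mean less growth of the strain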
# condition.description: S. cerevisiae deletion strains, growth OD, locus YHR087W, strain rtc3, stronger effect = lower value
About 2,000 (36%) of roughly 5,500 compounds were called active. Not shown: some 18% with an inconclusive outcome. Some of the results follow.
Property: normalized growth; scope: individual compounds
reported.property: normalized growth

• CSc1nc(N)n(-c2ccccc2)n1 = 1
• C/C(=C\C(=O)Nc1ccc(F)cc1)Nc1ccc(F)cc1 = 0.971
• N#CCCN(CC1CCCO1)C(=S)Nc1cc(C(F)(F)F)cc(C(F)(F)F)c1 (stereo not drawn) = 0.979

====

# assay.overview: chemical genetic growth profiling, strain panel (AID 1159580);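 note: tested at 20 µM; growth read once vehicle control cultures reached saturation at 30 °C; 1 = growth at the plate median or of vehicle wells; lower values mean less growth of the strain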
# condition.description: S. cerevisiae deletion strains, growth OD, locus YGR052W, strain FMP48, stronger effect = lower value
Among all 5,500 compounds or so, about 2,000 (36%) were called active. Another 18% or so got no clear call; they are omitted. Some of the results follow.
reported.property: normalized growth

• Cc1nn(C)c(C(=O)Sc2ccc(OC(F)(F)F)cc2)c1[N+](=O)[O-] = 0.988
• O=C(Nc1cccc(C(F)(F)F)c1)c1cncc(C#Cc2ccccc2)c1 = 0.977
• O=C(NCc1ccc(Cl)c(Cl)c1)c1cccnc1OCC(F)(F)F = 1.02
• COc1ccc(C(CC(=O)c2ccccc2)Sc2ccccc2N)cc1OC (stereo unspecified) = 1.02
• C/C(Cc1nnn(-c2cc(C)on2)n1)=N/OC(=O)Nc1ccc(Cl)cc1 = 0.971
• Cc1cc(C(=O)NNS(=O)(=O)c2ccc(F)c(Cl)c2)nn1-c1c(Cl)cc(Cl)cc1Cl = 1.1
• Cc1ccc(S(=O)(=O)NC(=O)Nc2ccc(Sc3ccccc3)nc2Sc2ccccc2)cc1 = 0.982
• O=[N+]([O-])c1ccc(ON=C2CCCCC2)c([N+](=O)[O-])c1 = 0.877
• CCOC(=O)c1ccc2nc(N=CNO)sc2c1 = 0.983
• N/C(Cn1ccc(C(F)(F)F)n1)=N/OS(=O)(=O)c1cccc(Cl)c1Cl = 1.09
• CCCN(CCC)C(=S)NC(=O)c1cccc([N+](=O)[O-])c1 = 1.02
• CC(=O)c1ccc(Cl)c(NS(=O)(=O)c2cc(Cl)c(Cl)cc2Cl)c1 = 0.781
• O=C(/C=C/c1ccc2c(c1)OCO2)Nc1ccc(Br)cc1 = 0.909
• Cc1cc(C)cc(Sc2ccc3nnc(-c4ccccc4)n3n2)c1 = 1.09
• N#C/C(=N/Nc1ccc(F)cc1)C(=O)c1ccccc1 = 0.98
• N#C/C(=N/Nc1ccccc1)C(=O)c1ccccc1OC(F)(F)F = 0.883

====

# assay.overview: chemical genetic growth profiling, strain panel (AID 1159580);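 note: tested at 20 µM; growth read once vehicle control cultures reached saturation at 30 °C; 1 = growth at the plate median or of vehicle wells; lower values mean less growth of the strain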
# condition.description: S. cerevisiae deletion strains, growth OD, strain wtn01, stronger effect = lower value
About 2,000 (36%) of roughly 5,500 compounds were called active. Inconclusive results (about 18%) are left out. The list shows a part of the results.
# Satisfied = normalized growth below 1 (exclusive); Not satisfied = normalized growth at/above 1

- NCCCS(=O)(=O)O: Satisfied
- COc1ccc(-c2coc3cc(OC)ccc3c2=O)cc1: Satisfied
- COc1cc2c(cc1OC)C(=O)c1ccc(OC)c(OC)c1OCC(=O)C2: Not satisfied
- COc1ccc2c(c1)OC/C(=C/c1ccc(OC)c(OC)c1)C2=O: Satisfied
- O=C1C(Cl)=C(Cl)C(=O)C(Cl)=C1Cl: Satisfied
- C=CCc1ccc(OC(=O)c2ccccc2)c(OC)c1: Satisfied
- CCC(C)C(=O)OC1CC2(C)C(c3ccoc3)OC(=O)CC23OC2(C)OC34C(OC(=O)C(C)C)C3(O)C(OC(=O)C5(C)OC5C)C5(C)CC3(O)C(C)(C5C(=O)OC)C14O2 (stereo unspecified): Not satisfied
- CCCCNC(=O)NS(=O)(=O)c1ccc(C)cc1: Satisfied
- CC(=O)S[C@@H]1CC2=CC(=O)CC[C@]2(C)[C@H]2CC[C@@]3(C)[C@@H](CC[C@@]34CCC(=O)O4)C12 (stereo partly specified): Not satisfied
- COc1ccc(-c2coc3cc(O)ccc3c2=O)cc1: Satisfied
- COc1cc(CNC(=O)CCCC/C=C/C(C)C)ccc1O: Satisfied
